assay: In vitro agonist activity at kappa opioid receptor in rabbit vas deferens.
Task for the reader: assign each of the following molecules its reported IC50.

Some molecules with recorded IC50:
{"molecule": "COC(=O)N1CCN(C(=O)Cc2ccc(Cl)c(Cl)c2)C(CN2CCC(O)C2)C1 (stereo not drawn)", "IC50": "0.34 nM"}
{"molecule": "O=CN1CCN(C(=O)Cc2ccc(Cl)c(Cl)c2)C(CN2CCCC2)C1 (stereo not drawn)", "IC50": "15 nM"}
{"molecule": "O=C(Cc1ccccc1)N1CCN(C(=O)Cc2ccc(Cl)c(Cl)c2)C(CN2CCCC2)C1 (stereo not drawn)", "IC50": "> 10000 nM"}
{"molecule": "CCOC(=O)N1CCN(C(=O)Cc2ccc(Cl)c(Cl)c2)C(CN2CCCC2)C1 (stereo not drawn)", "IC50": "3.5 nM"}
{"molecule": "CCCOC(=O)N1CCN(C(=O)Cc2ccc(Cl)c(Cl)c2)C(CN2CCCC2)C1 (stereo not drawn)", "IC50": "300 nM"}
{"molecule": "CC(=O)N1CCN(C(=O)Cc2ccc(Cl)c(Cl)c2)C(CN2CCCC2)C1 (stereo not drawn)", "IC50": "10 nM"}
{"molecule": "COC(=O)N1CCN(C(=O)Cc2ccc(Cl)c(Cl)c2)C(CN2CCC(=O)C2)C1 (stereo not drawn)", "IC50": "0.34 nM"}
{"molecule": "CCCC(=O)N1CCN(C(=O)Cc2ccc(Cl)c(Cl)c2)C(CN2CCCC2)C1 (stereo not drawn)", "IC50": "60 nM"}

Items follow; give IC50 for each.
1. CCC(=O)N1CCN(C(=O)Cc2ccc(Cl)c(Cl)c2)C(CN2CCCC2)C1 (stereo not drawn)
2. COCC(=O)N1CCN(C(=O)Cc2ccc(Cl)c(Cl)c2)C(CN2CCCC2)C1 (stereo not drawn)
3. C=CC(=O)N1CCN(C(=O)Cc2ccc(Cl)c(Cl)c2)C(CN2CCCC2)C1 (stereo not drawn)
4. COC(=O)N1CCN(C(=O)Cc2ccc(Cl)c(Cl)c2)C(CN(C)C)C1 (stereo not drawn)

## Result
["6.9 nM", "2900 nM", "0.42 nM", "1.2 nM"]

Items follow; give IC50 for each.
1. O=C(c1ccccc1)N1CCN(C(=O)Cc2ccc(Cl)c(Cl)c2)C(CN2CCCC2)C1 (stereo not drawn)
2. O=C(OCc1ccccc1)N1CCN(C(=O)Cc2ccc(Cl)c(Cl)c2)C(CN2CCCC2)C1 (stereo not drawn)
3. COC(=O)/C=C1\CCN(CC2CN(C(=O)OC)CCN2C(=O)Cc2ccc(Cl)c(Cl)c2)C1 (stereo not drawn)
4. COC(=O)N1CCN(C(=O)Cc2ccc(Cl)c(Cl)c2)C(CN2CC=CCC2)C1 (stereo not drawn)
5. O=C(Oc1ccccc1)N1CCN(C(=O)Cc2ccc(Cl)c(Cl)c2)C(CN2CCCC2)C1 (stereo not drawn)

## Result
["> 10000 nM", "450 nM", "4 nM", "0.04 nM", "> 10000 nM"]

## Task I'd like to know its IC50. The molecule in question is COC(=O)/C=C1/CCN(CC2CN(C(=O)OC)CCN2C(=O)Cc2ccc(Cl)c(Cl)c2)C1 (stereo not drawn)
## Result 0.28 nM

Value source: BindingDB's records for doi:10.1021/jm00067a004
